The reported measurements were obtained from patent US20230321246A1.

- ASSAY_COMMENT: in vivo
- CONDITION_SUMMARY: male, beagle, dog, iv, 2 mg/kg

{"SUBSTANCE_SMILES": "CC(=O)O[C@H]1C(=O)[C@@]2(C)[C@H]([C@H](OC(=O)c3ccccc3)[C@]3(O)C[C@H](OC(=O)[C@H](O)[C@@H](NC(=O)c4ccccc4)c4ccccc4)C(C)=C1C3(C)C)[C@]1(OC(C)=O)CO[C@@H]1C[C@@H]2O", "Vd": "6.59 L/kg"}

###

- ASSAY_COMMENT: in vivo
- CONDITION_SUMMARY: male, beagle, dog, iv, 2 mg/kg
PARAMETER_MEASURED: Vd (L/kg)

{"SUBSTANCE_SMILES": "CC(=O)O[C@H]1C(=O)[C@@]2(C)[C@H]([C@H](OC(=O)c3ccccc3)[C@]3(O)C[C@H](OC(=O)[C@H](O)[C@@H](NC(=O)c4ccccc4)c4ccccc4)C(C)=C1C3(C)C)[C@]1(OC(C)=O)CO[C@@H]1C[C@@H]2O", "PARAMETER_MEASURED": "Vd", "VALUE_MEASURED": 2.1}

###

- ASSAY_COMMENT: in vivo
- CONDITION_SUMMARY: male, beagle, dog, iv, 2 mg/kg

{"SUBSTANCE_SMILES": "CC(=O)O[C@H]1C(=O)[C@@]2(C)[C@H]([C@H](OC(=O)c3ccccc3)[C@]3(O)C[C@H](OC(=O)[C@H](O)[C@@H](NC(=O)c4ccccc4)c4ccccc4)C(C)=C1C3(C)C)[C@]1(OC(C)=O)CO[C@@H]1C[C@@H]2O", "MRT (h)": 3.67}

###

- ASSAY_COMMENT: in vivo
- CONDITION_SUMMARY: male, beagle, dog, iv, 2 mg/kg

{"SUBSTANCE_SMILES": "CC(=O)O[C@H]1C(=O)[C@@]2(C)[C@H]([C@H](OC(=O)c3ccccc3)[C@]3(O)C[C@H](OC(=O)[C@H](O)[C@@H](NC(=O)c4ccccc4)c4ccccc4)C(C)=C1C3(C)C)[C@]1(OC(C)=O)CO[C@@H]1C[C@@H]2O", "U": "h", "Tmax": 1}

###

- ASSAY_COMMENT: in vivo
- CONDITION_SUMMARY: male, beagle, dog, iv, 2 mg/kg

{"SUBSTANCE_SMILES": "CC(=O)O[C@H]1C(=O)[C@@]2(C)[C@H]([C@H](OC(=O)c3ccccc3)[C@]3(O)C[C@H](OC(=O)[C@H](O)[C@@H](NC(=O)c4ccccc4)c4ccccc4)C(C)=C1C3(C)C)[C@]1(OC(C)=O)CO[C@@H]1C[C@@H]2O", "Cmax, ng/mL": 1690}

###

- ASSAY_COMMENT: in vivo
- CONDITION_SUMMARY: male, beagle, dog, iv, 2 mg/kg

{"MOLECULE": "CC(=O)O[C@H]1C(=O)[C@@]2(C)[C@H]([C@H](OC(=O)c3ccccc3)[C@]3(O)C[C@H](OC(=O)[C@H](O)[C@@H](NC(=O)c4ccccc4)c4ccccc4)C(C)=C1C3(C)C)[C@]1(OC(C)=O)CO[C@@H]1C[C@@H]2O [Paclitaxel, paclitaxel]", "Cmax / ng/mL": 811}

###

- ASSAY_COMMENT: in vivo
- CONDITION_SUMMARY: male, beagle, dog, iv, 2 mg/kg

{"COMPOUND": "CC(=O)O[C@H]1C(=O)[C@@]2(C)[C@H]([C@H](OC(=O)c3ccccc3)[C@]3(O)C[C@H](OC(=O)[C@H](O)[C@@H](NC(=O)c4ccccc4)c4ccccc4)C(C)=C1C3(C)C)[C@]1(OC(C)=O)CO[C@@H]1C[C@@H]2O [Paclitaxel, paclitaxel]", "AUC(0-inf) (ng·h/mL)": 1950}
